Every entry's value here was drawn from the nanobody polyreactivity screen of Harvey et al. (2022).

# Experiment Notes: yeast display, Sf9 membrane polyspecificity reagent, FACS + sequencing; frameworks hold sequencing errors
Readout Kind: polyreactivity (PSR sort gate)

Guide cases for polyreactivity (PSR sort gate), answers given:
QVQLVESGGGLVQAGGSLRLSCAASGRTFYGYAMGWYRQAPGKERELVAAISKSGGRTYYADSVKGRFTISRDNAKNTVYLQMNSLKPEDSAVYYCNAPVTGAGTYPPYDSWGQGTQVTVSS: high polyreactivity
QVQLVESGGGLVQAGGSLRLSCAASGFIFARYAMGWYRQAPGKERELVASITRRGGSTYYADSVKGRFTISRDYEKITVYLQMNSLKPEDTAVYYCARPNLLSGDYWGQGTQVTVSS: high polyreactivity
QVQLVESWGGLVQAGGRLRLSCAASGIIFHRNAMGWYRQAPGKQRELVAAISERGGSTYYADSVKGRFTISRDNAKNTVYLQMNSLKPEDTAVYYCIADGFYRGGYWGQGTQVTVSS: low polyreactivity
QVQLVESGGGLVQAGGSLRLSCAASGRILIPYAMGWYRQAPGKEREFVAGITGSGGRTYYADSVKGRFTISRDNAKNTVYLQMNSLKPEDTAVYYCAADYYYSPTMYYWGQGTQVTVSS: low polyreactivity
QVQLVESGGGLVQAGGSLRLSCAASGSISYFNDMGWYRQAPGKERELVAAIRDSGGITYADSVKGRFTISRDNAKNTVYLQMNSLKPEDTAVYYCATYGNEIYDYWGLGTQVTVSS: low polyreactivity
QVQVVESGGGLVQAGGSLRLSCAASGRTFFFYAMGWYRQAPGKERELVAGITSRGTRTYYADSVKGRFTISRDNAKNTVYLQMNSLKPEDTAVYYCATDDSRDWLNYWGQGTQVTVSS: low polyreactivity
QVQLVESGGGLVQAGGSLRLSCAASGITFGSYAMGWYRQAPGKERELVAAISRSGGSTYYADSVKGRFTISRDNEKNTVYLQMNSLKPEDTAVYYCAVRYVYYREGDYWGQGTQVTVSS: high polyreactivity
QVQLVESGGGLVQAGGSLRLSCAASGRIGYYVMGWYRQAPGKERELVAAISRSGDSTYYADSVKGRFTISRDNAKNTVYLQMNSLKPEDTAVYYCAAASGWRYFYKYDYWGQGTQVTVSS: high polyreactivity
QVQLVESGGGLVQAGGSLRLSCAASGFTFYYYAMGWYRQAPGKEREMVAAISGGGGSTYYADSVKGRFTISRDNAKNTVYLQMNSLKPEDTAVFYCAAEYRGYPEDEYWGQGTQVTVSS: high polyreactivity
QVQLVDSGGGLVQAGGSHRLSCAASGSIFPRYAMGWYRQAPGKERELVAAITRSGGSTYADSVKGRFTISRDNAKNTVYLQMNSLKPEDTAVYYCNGKVYPWGYYTSWRTVSPYDYWGQGTQVTVSS: high polyreactivity

# return recorded polyreactivity (PSR sort gate) for entry QVQLVESGGGLVQAGGSLRLSCAASGNTFRINAMGWYRQAPGKERELVAAISRSTGRTYYADSVKGRFTISRDNAKNTVYLQMNSLKPEDTAVYYCAAGYTGQEHDYWGLGTQVTVSS
high polyreactivity

Please give the documented polyreactivity (PSR sort gate) of QVQQQESGGGLVQAGGSLRLSCAASGNTSDTGYMGWYRQAPGKERKVVASIDYGSNTYYADSVKVRFTISRDNAKNTVYLQMNSLKPEDTAVYYCAAYYIGDYTLVYWGQGTQVTVSS
high polyreactivity

Please look at this sequence and report its polyreactivity (PSR sort gate): QVQLVESGGGLVQAGGSLRLSCAASGLTFYFNAMVWYRQAPVKERQLVAAIDWGGGSTYYADSVKGRFTISRDNAKNTVYLQMNSLNPEDTAVYYCGARGYYYNYDVNYWVQGTQVTVSS
low polyreactivity
